Measured values drawn from patent US8106055B2 for this set.

- TARGET_SYSTEM: human μ opiate receptor (Homo sapiens)
- Construct: purchased PerkinElmer Life Sciences, Zaventem, Belgium RB-HOM; host or cells: CHO-K1 cells (membrane preparation)
- Sequence (P35372 whole entry): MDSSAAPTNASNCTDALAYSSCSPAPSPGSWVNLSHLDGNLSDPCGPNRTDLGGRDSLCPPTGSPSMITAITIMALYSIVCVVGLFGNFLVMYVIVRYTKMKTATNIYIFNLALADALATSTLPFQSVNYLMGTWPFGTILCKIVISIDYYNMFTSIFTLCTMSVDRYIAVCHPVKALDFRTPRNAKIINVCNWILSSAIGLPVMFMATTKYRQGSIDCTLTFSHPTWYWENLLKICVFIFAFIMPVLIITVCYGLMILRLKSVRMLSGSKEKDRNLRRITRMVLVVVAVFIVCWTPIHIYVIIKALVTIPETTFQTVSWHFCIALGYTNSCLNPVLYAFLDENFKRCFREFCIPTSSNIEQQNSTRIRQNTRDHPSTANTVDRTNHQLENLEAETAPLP
- TEST_METHOD_NOTES: Affinity for the human μ opiate receptor ([3H]-naloxone displacement, CHO-K1 receptor membrane preparation, SPA)
- Assay type: binding
- CONDITION_CONTEXT: 1.5 h, Table 3, to be read in the same way as Table 1; test concentration 1 μM; read-out: μ
Hi, to clarify the labels: satisfied covers inhibition at 1 µM from 10% upward, not satisfied covers anything below 10%.

{"COMPOUND": "COc1cc(C)c(S(=O)(=O)N2CCCC(OCC(=O)NCC3CCC(C(c4ccccc4)N4CCCC4)CC3)C2)c(C)c1 (centres unmarked)", "CLASSIFICATION": "satisfied"}
{"COMPOUND": "O=C(COC1CCCN(S(=O)(=O)c2c(Cl)cc(Cl)cc2Cl)C1)NCC1CCC(C(CCc2ccccc2)N2CCOCC2)CC1 (centres unmarked)", "CLASSIFICATION": "satisfied"}
{"COMPOUND": "O=C(COCC1CCCN1S(=O)(=O)c1c(Cl)cc(Cl)cc1Cl)NCC1CCC(C(c2ccccc2)N2CCCC2)CC1 (centres unmarked)", "CLASSIFICATION": "satisfied"}
{"COMPOUND": "CN(CCOCC(=O)NC1CCC(C(c2ccccc2)N2CCOCC2)CC1)S(=O)(=O)c1ccc(Cl)cc1Cl (centres unmarked)", "CLASSIFICATION": "not satisfied"}
{"COMPOUND": "CN(CCOCC(=O)NC1CCC(C(c2ccccc2)N2CCOCC2)CC1)S(=O)(=O)c1c(Cl)cccc1Cl (centres unmarked)", "CLASSIFICATION": "not satisfied"}
{"COMPOUND": "O=C(COCC1CCCCN1S(=O)(=O)c1c(Cl)cc(Cl)cc1Cl)NC1CCC(C(c2ccccc2)N2CCCC2)CC1 (centres unmarked)", "CLASSIFICATION": "satisfied"}
{"COMPOUND": "O=C(COC1CCCN(S(=O)(=O)c2c(Cl)cc(Cl)cc2Cl)C1)NCC1CCC(C(CCc2ccccc2)N2CCCC2)CC1 (centres unmarked)", "CLASSIFICATION": "satisfied"}
{"COMPOUND": "CN(CCOCC(=O)NCC1CCC(C(c2ccccc2)N2CCOCC2)CC1)S(=O)(=O)c1c(Cl)cc(Cl)cc1Cl (centres unmarked)", "CLASSIFICATION": "not satisfied"}
{"COMPOUND": "COc1cc(C)c(S(=O)(=O)N2CCCC(COCC(=O)NC3CCC(C(CCc4ccccc4)N4CCOCC4)CC3)C2)c(C)c1 (centres unmarked)", "CLASSIFICATION": "not satisfied"}
{"COMPOUND": "COc1cc(C)c(S(=O)(=O)N2CCC(OCC(=O)NC3CCC(C(c4ccccc4)N4CCOCC4)CC3)C2)c(C)c1 (centres unmarked)", "CLASSIFICATION": "not satisfied"}
{"COMPOUND": "COc1cc(C)c(S(=O)(=O)N2CCCCC2COCC(=O)NCC2CCC(C(c3ccccc3)N3CCCC3)CC2)c(C)c1 (centres unmarked)", "CLASSIFICATION": "satisfied"}

----------
- TARGET_SYSTEM: serotonin (5-HT) reuptake (Rattus norvegicus)
- Construct: synaptosomes are freshly isolated from areas of the rat brain; from tissue; host or cells: rat brain synaptosomes (P2 fraction)
- Sequence (P31652 whole entry): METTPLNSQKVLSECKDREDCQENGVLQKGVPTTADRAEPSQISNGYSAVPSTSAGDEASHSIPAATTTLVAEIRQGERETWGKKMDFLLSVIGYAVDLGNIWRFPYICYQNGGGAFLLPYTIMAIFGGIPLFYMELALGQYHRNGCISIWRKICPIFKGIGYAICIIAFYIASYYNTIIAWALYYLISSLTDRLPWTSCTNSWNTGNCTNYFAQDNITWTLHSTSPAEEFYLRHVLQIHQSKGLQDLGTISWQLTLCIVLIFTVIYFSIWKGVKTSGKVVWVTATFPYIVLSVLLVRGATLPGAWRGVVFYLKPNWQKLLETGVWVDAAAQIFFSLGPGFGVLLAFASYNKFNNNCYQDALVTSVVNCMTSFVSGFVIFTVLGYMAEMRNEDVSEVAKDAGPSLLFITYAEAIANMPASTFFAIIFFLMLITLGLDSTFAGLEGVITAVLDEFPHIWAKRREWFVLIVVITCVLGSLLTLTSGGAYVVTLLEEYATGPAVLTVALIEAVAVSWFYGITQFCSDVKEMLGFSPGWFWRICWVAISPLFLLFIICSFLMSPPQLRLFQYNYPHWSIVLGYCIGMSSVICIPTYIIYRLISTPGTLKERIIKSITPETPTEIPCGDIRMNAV
- TEST_METHOD_NOTES: Inhibition of serotonin (5HT) reuptake in synaptosomes from rat brain
- Assay type: biochemical
- CONDITION_CONTEXT: test concentration of 10 μM
- Method: Binding data of the compounds on the μ opioid receptor and data on the inhibition of reuptake of serotonin (5-HT) are given in Table 1. The data for the μ receptor were measured at a test concentration of 1 μM, and those for the serotonin reuptake at 10 μM. The values are stated in % inhibition. Inhibition of Serotonin (5HT) Reuptake In order to be able to carry out these in vitro studies, synaptosomes are freshly isolated from areas of the rat brain. […]
RECORDED_ENDPOINT: 5-HT (inhibition of reuptake of serotonin, % inhibition) (%)

{"MOLECULE": "CN(C)C(c1ccc(F)cc1)C1CCC(NC(=O)COCCN(C)S(=O)(=O)c2cccc(C(F)(F)F)c2)CC1 (stereo not shown) [Example 438]", "TARGET_SYSTEM": "serotonin (5-HT) reuptake (Rattus norvegicus)", "OBSERVED_MEASUREMENT": 84}
{"MOLECULE": "CN(C)C(c1ccc(Cl)cc1)C1CCC(CCNC(=O)COCCC2CCN(S(=O)(=O)c3ccccc3)CC2)CC1 (stereo not shown) [Example 531]", "TARGET_SYSTEM": "serotonin (5-HT) reuptake (Rattus norvegicus)", "OBSERVED_MEASUREMENT": 98}
{"MOLECULE": "COc1ccc(S(=O)(=O)N2CCCCC2COCC(=O)NCC2CCC(C(c3ccc(F)cc3)N(C)C)CC2)c(OC)c1 (stereo not shown) [Example 405]", "TARGET_SYSTEM": "serotonin (5-HT) reuptake (Rattus norvegicus)", "OBSERVED_MEASUREMENT": 89}
{"MOLECULE": "CCN(CCOCC(=O)NCC1CCC(C(c2ccccc2)N(C)C)CC1)S(=O)(=O)c1c(C)cc(OC)c(C)c1C (stereo not shown) [Example 231]", "TARGET_SYSTEM": "serotonin (5-HT) reuptake (Rattus norvegicus)", "OBSERVED_MEASUREMENT": 83}

----------
- TARGET_SYSTEM: bradykinin 1 receptor (B1R) of the rat (Rattus norvegicus, UniProt P97583)
- Construct: expressed in transfected cells; host or cells: CHO K1 cells
- Sequence (P97583 whole entry): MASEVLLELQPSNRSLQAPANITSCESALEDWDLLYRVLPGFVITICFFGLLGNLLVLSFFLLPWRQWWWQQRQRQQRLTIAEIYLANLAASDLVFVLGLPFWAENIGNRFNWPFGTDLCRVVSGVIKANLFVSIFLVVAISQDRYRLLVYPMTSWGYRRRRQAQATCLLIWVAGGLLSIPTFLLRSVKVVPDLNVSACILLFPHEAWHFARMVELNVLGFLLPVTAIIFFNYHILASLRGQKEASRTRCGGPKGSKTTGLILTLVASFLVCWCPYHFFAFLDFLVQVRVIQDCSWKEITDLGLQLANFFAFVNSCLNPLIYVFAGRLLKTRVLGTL
- TEST_METHOD_NOTES: Functional investigation on the rat bradykinin 1 receptor (B1R), Ca2+ FLIPR assay in CHO K1 rB1R cells
- Type: cell-based
- CONDITION_CONTEXT: CHO-K1, B1R antagonism rat; test substance 10 μM; % inhibition compared with the maximum achievable inhibition; read-out: B1R Ant. r [10 μM] % Inhibition
- Text: Functional Investigation on the Human Bradykinin 1 Receptor (B1R) The agonistic or antagonistic action of substances can be determined on the bradykinin 1 receptor (B1R) of the human species and rats with the following assay. In accordance with this assay, the Ca^2+ inflow through the channel is quantified with the aid of a Ca^2=-sensitive dyestuff (type Fluo-4, Molecular Probes Europe BV, Leiden, Holland) in a fluorescent imaging plate reader (FLIPR, Molecular Devices, Sunnyvale, USA). […]
Below is a list of entries, each paired with its recorded inhibition at 10 µM value.

{"COMPOUND": "COc1cc(C)c(S(=O)(=O)N(C)CCOCC(=O)N2CCC(C(CCc3ccccc3)N3CCN(C)CC3)CC2)c(C)c1 (stereo not shown)", "TARGET_SYSTEM": "bradykinin 1 receptor (B1R) of the rat (Rattus norvegicus, UniProt P97583)", "inhibition at 10 µM": "97%"}
{"COMPOUND": "CN1CCN(C(c2ccccc2)C2CCN(C(=O)COCC3CCc4ccccc4N3S(=O)(=O)c3ccc(Cl)c(Cl)c3)CC2)CC1 (stereo not shown)", "TARGET_SYSTEM": "bradykinin 1 receptor (B1R) of the rat (Rattus norvegicus, UniProt P97583)", "inhibition at 10 µM": "97%"}
{"COMPOUND": "CN1CCN(C(c2cccc(F)c2)C2CCN(C(=O)COCC3CCc4ccccc4N3S(=O)(=O)c3ccc(Cl)c(Cl)c3)CC2)CC1 (stereo not shown)", "TARGET_SYSTEM": "bradykinin 1 receptor (B1R) of the rat (Rattus norvegicus, UniProt P97583)", "inhibition at 10 µM": "87%"}
{"COMPOUND": "COc1cc(C)c(S(=O)(=O)N(C)CCOCC(=O)N2CCC(C(Cc3ccccc3)N3CCN(C)CC3)CC2)c(C)c1 (stereo not shown)", "TARGET_SYSTEM": "bradykinin 1 receptor (B1R) of the rat (Rattus norvegicus, UniProt P97583)", "inhibition at 10 µM": "99%"}
{"COMPOUND": "COc1cc(C)c(S(=O)(=O)N(C)CCOCC(=O)N2CCC(C(c3cccc(F)c3)N3CCN(C)CC3)CC2)c(C)c1 (stereo not shown)", "TARGET_SYSTEM": "bradykinin 1 receptor (B1R) of the rat (Rattus norvegicus, UniProt P97583)", "inhibition at 10 µM": "100%"}
{"COMPOUND": "COc1cc(C)c(S(=O)(=O)N2CCCCC2COCC(=O)N2CCC(C(CCc3ccccc3)N3CCN(C)CC3)CC2)c(C)c1 (stereo not shown)", "TARGET_SYSTEM": "bradykinin 1 receptor (B1R) of the rat (Rattus norvegicus, UniProt P97583)", "inhibition at 10 µM": "99%"}
{"COMPOUND": "COc1cc(C)c(S(=O)(=O)N(C)CCOCC(=O)N2CCC(C(c3ccccc3)N3CCN(C)CC3)CC2)c(C)c1 (stereo not shown)", "TARGET_SYSTEM": "bradykinin 1 receptor (B1R) of the rat (Rattus norvegicus, UniProt P97583)", "inhibition at 10 µM": "100%"}
